These measurements were taken from PubChem BioAssay (NCI).

System: SF-539 CNS
Experiment: NCI tumour cell line growth inhibition, 48 h
measure: TGI

Here is how some compounds turned out for TGI.
> print(dat)
                                   compound  measure  readout.value
1  COc1ccc(C(=O)NNc2nc(Cl)nc(N3CCN(C(c4ccccc4)c4ccccc4)CC3)n2)cc1      TGI        3.21 µM
2  NCCOCCOCCNc1nc(-c2ccc(Cl)cc2)nc(N2CCN(c3ccccn3)CC2)n1      TGI        5.18 µM
3  COc1cc2c(cc1O)CC1c3c(cc(O)c(OC)c3-2)CCN1C (stereo not drawn)      TGI       > 100 µM
4  O=C1C=CC(=O)c2c(O)c(NCCOCCO)c(Cl)c(O)c21      TGI          15 µM
5         Cc1nc(N)c(N2CCN(CN)CC2)c(=O)[nH]1      TGI       > 100 µM

Batch request: TGI per item, same order as input.
1. Cc1nn2c(/C=C3/C(=O)Nc4cc(Cl)ccc43)c(-c3ccccc3)nc2s1
2. Cc1nc(Nc2cccnc2)sc1C(=O)/C=C/c1ccc(Cl)cc1
3. OCc1ccc(-c2cscc2-c2ccc(CO)o2)o1
4. Cc1cc(N=C2C=C(Br)C(=O)C(Br)=C2)cc(CN(CC(=O)O)CC(=O)O)c1O
5. CN1C(=O)C(O)C[C@@H]1c1ccccc1 (stereo partly drawn)

3.46 µM
5.26 µM
> 100 µM
> 100 µM
> 100 µM

Batch request: TGI per item, same order as input.
1. COc1ccc(Nc2ccc3ccccc3c2-c2c(O)ccc3ccccc23)cc1
2. O=C(Nc1ccccc1C(=O)NCc1ccccc1)/C(=C/c1ccccc1)NC(=O)c1ccccc1

1: 51.1 µM; 2: > 100 µM

Batch request: TGI per item, same order as input.
1. CCN(CC)C(=S)SS(=O)(=O)c1cccc(N)c1
2. O=C(c1cccs1)N1CCN(C(=O)c2cccs2)C1=S

1: > 100 µM; 2: 4.84 µM

Batch request: TGI per item, same order as input.
1. c1cncc(CNCc2cccnc2)c1
2. C[C@]12CC[C@H](O)CC1=CC[C@@H]1C2CC[C@]2(C)Nc3c(cnn3-c3ccccc3)CC12 (stereo partly drawn)
3. O=C(Nn1c(-c2ccccc2)nc2ccccc2c1=O)c1ccccc1O
4. CC1CCSC(N(C(=O)N(C)c2ccccc2)c2ccccc2)=N1 (stereo not drawn)
5. CC(=O)[O-].[Mn+3].[O-]c1ccccc1C=NCCNCCN=Cc1ccccc1[O-]
6. O=c1[nH]c2nc(NC3CCOCC3)ncc2cc1Oc1ccc(F)cc1F

1: > 100 µM; 2: 2.99 µM; 3: > 100 µM; 4: > 100 µM; 5: > 100 µM; 6: > 25 µM
